biological target: Mu-type opioid receptor (Cavia porcellus); experiment: Compound was evaluated for the inhibition of Opioid receptor mu 1 binding to guinea pig brain membranes, using [3H]- DAMGO as radioligand
Sequence (P97266 whole entry): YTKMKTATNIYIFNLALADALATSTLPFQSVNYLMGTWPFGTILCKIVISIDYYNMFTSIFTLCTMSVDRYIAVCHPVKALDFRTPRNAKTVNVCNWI
pKi: −log10 of the molar value.
Decision: pKi >= 7 yields Met, all other cases yield Not met.

molecule	group.label
CN(C(=O)Cc1ccc(Cl)c(Cl)c1)[C@@H](CN1CCCC1)c1cccc(N/C(S)=N/c2ccc(-c3c4ccc(=O)cc-4oc4cc(O)ccc34)c(C(=O)O)c2)c1	Not met
CC(=O)Nc1cccc([C@@H](CN2CCCC2)N(C)C(=O)Cc2ccc(Cl)c(Cl)c2)c1	Met
CN(C(=O)Cc1ccc(Cl)c(Cl)c1)C(CN1CCCC1)c1cccc(N/C(S)=N/c2ccc(-c3c4ccc(=O)cc-4oc4cc(O)ccc34)c(C(=O)O)c2)c1 (stereo not given)	Not met
CC(=O)Nc1cccc([C@H](CN2CCCC2)N(C)C(=O)Cc2ccc(Cl)c(Cl)c2)c1	Not met
